- SYSTEM NAME: ΔF508 CFTR (Homo sapiens, UniProt P13569, DEL508-508)
- Sequence (P13569 with tags, fused parts or gaps DEL508-508): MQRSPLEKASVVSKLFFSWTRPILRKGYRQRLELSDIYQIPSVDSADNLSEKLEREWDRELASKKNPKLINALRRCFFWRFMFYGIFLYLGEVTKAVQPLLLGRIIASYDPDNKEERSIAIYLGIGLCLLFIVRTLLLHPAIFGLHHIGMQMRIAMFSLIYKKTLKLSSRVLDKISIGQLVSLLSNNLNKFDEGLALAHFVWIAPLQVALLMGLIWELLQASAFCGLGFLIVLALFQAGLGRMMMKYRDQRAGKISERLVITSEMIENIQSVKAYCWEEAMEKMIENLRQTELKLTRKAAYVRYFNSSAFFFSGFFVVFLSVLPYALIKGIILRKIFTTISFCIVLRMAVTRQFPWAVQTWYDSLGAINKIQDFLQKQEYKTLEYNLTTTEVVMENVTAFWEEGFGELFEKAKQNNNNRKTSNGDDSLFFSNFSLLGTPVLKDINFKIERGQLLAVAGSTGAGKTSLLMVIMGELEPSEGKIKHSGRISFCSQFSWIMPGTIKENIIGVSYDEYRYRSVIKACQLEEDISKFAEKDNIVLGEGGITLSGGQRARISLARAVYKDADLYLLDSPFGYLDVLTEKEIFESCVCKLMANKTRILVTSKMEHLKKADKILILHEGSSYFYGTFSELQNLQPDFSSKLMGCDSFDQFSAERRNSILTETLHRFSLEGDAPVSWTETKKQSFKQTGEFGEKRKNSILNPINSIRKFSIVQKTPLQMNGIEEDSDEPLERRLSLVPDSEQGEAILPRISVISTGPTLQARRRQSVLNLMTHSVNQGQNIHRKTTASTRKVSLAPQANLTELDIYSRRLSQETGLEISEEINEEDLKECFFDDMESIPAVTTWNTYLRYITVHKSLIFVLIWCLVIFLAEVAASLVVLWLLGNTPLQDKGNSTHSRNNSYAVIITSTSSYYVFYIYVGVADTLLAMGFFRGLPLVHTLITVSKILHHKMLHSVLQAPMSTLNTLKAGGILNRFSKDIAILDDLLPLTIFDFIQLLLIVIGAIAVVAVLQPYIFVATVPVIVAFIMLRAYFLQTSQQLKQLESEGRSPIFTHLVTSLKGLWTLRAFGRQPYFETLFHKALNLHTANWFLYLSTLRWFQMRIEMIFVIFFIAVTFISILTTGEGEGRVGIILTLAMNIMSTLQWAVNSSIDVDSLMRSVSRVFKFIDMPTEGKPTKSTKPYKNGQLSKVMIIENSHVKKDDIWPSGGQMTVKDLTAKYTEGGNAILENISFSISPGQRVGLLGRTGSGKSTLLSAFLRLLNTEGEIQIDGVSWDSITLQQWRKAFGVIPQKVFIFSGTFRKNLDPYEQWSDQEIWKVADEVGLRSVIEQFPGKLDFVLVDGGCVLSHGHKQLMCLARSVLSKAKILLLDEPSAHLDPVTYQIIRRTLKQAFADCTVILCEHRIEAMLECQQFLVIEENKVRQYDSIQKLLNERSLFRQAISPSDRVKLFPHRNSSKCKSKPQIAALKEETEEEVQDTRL
- ASSAY PROCEDURE: Corrector activity, YFP halide (iodide) quenching assay in FRT cells expressing ΔF508 CFTR
- Assay type: cell-based
- Set-up: expressed in transfected cells; host or cells: Fischer rat thyroid (FRT) cells
- SETUP CONDITIONS: FRT cells ΔF508 CFTR/YFP, 24 hours with compound at 37° C., forskolin and genistein; read-out: Corrector EC50
READOUT NAME: EC50

compound="CCNC(=O)N1CC(n2nc([S+]([O-])c3ccccc3)c3c(N)ncnc32)C1 (stereo not shown)" result="> 15 µM"
compound=CC(C)(C)n1nc(-c2cccc(Cl)c2)c2c(N)ncnc21 result="> 15 µM"
compound=CN(C)C(=O)Nc1ncnc2c1c(-c1ccc(Cl)cc1)nn2C(C)(C)C result="> 15 µM"
compound=CC(C)(C)OC(=O)N1CC(n2nc(Oc3cccc(Cl)c3)c3c(N)ncnc32)C1 result="> 15 µM"
compound=CC(=O)c1ccc(-c2nn(C(C)(C)C)c3ncnc(N)c23)cc1 result="> 15 µM"
compound=CC(C)(C)n1nc(Oc2ccc(C(=O)c3ccccc3)cc2)c2c(N)ncnc21 result="> 15 µM"
compound=Nc1ncnc2c1c(-c1ccc(Cl)cc1)cn2CC1CCC1 result="2 to 5 µM"
compound=CC(C)(C)n1nc(Oc2ccc(C#N)cc2)c2c(N)ncnc21 result="> 15 µM"
compound="Nc1ncnc2c1c(Oc1cccc(Cl)c1)nn2C1CCOC1 (stereo not shown)" result="> 15 µM"
compound=CCC(=O)Nc1ncnc2c1c(-c1ccc(Cl)cc1)nn2C(C)(C)C result="5 to 10 µM"
compound=CC(C)(C)n1cc(-c2ccc(Cl)cc2)c2c(N)ncnc21 result="< 2 µM"
compound=CC(C)(C)n1nc(Br)c2c(NC(=O)c3ccccc3)ncnc21 result="2 to 5 µM"
compound=Nc1ncnc2c1c(-c1ccc(Cl)cc1)nn2-c1ccccc1 result="> 15 µM"
compound="Nc1ncnc2c1c(-c1ccc(Cl)cc1)cn2CC(O)CF (stereo not shown)" result="2 to 5 µM"
compound=CCn1nc(Oc2cccc(Cl)c2)c2c(N)ncnc21 result="> 15 µM"
compound=Nc1ncnc2c1c(-c1ccc(Cl)cc1)nn2[C@@H]1CCOC1 result="> 15 µM"
compound=Cc1ccc(-c2nn(-c3ncccn3)c3ncnc(N)c23)cc1 result="> 15 µM"
compound=CCn1nc(Sc2ccc(F)cc2F)c2c(N)ncnc21 result="> 15 µM"
compound=COc1nn(C(C)(C)C)c2ncnc(N)c12 result="> 15 µM"

* * *

- SYSTEM NAME: ΔF508 CFTR (Homo sapiens, UniProt P13569, DEL508-508)
- ASSAY PROCEDURE: Corrector activity, YFP halide (iodide) quenching assay in FRT cells expressing ΔF508 CFTR
- Format: cell-based
- Parameters: expressed in transfected cells; host or cells: Fischer rat thyroid (FRT) cells
- SETUP CONDITIONS: FRT cells ΔF508 CFTR/YFP, 24 hours with compound at 37° C., forskolin and genistein; read-out: Corrector EC50
- Experimental: Fisher rat thyroid (FRT) cells stably expressing ΔF508 CFTR and a halide-sensitive variant of yellow fluorescent protein (YFP) were seeded into microtiter plates and allowed to grow for 24 hours at 37° C. and 5% CO2. See Pedemonte et al., J. Clin. Invest. […] Corrector activity was calculated as follows. Normalized endpoint fluorescence was calculated by dividing the endpoint fluorescence after iodide injection by the initial fluorescence reading and multiplication by 100. […]
READOUT NAME: EC50

compound=CCn1nc(N(C)c2ccccc2)c2c(N)ncnc21 system_name="ΔF508 CFTR (Homo sapiens, UniProt P13569, DEL508-508)" result="> 15 µM"
compound=Nc1ncnc2[nH]nc(Oc3cccc(Cl)c3)c12 system_name="ΔF508 CFTR (Homo sapiens, UniProt P13569, DEL508-508)" result="> 15 µM"
compound=Nc1ncnc2c1c(-c1ccc(Cl)cc1)nn2CC1CC1 system_name="ΔF508 CFTR (Homo sapiens, UniProt P13569, DEL508-508)" result="5 to 10 µM"
compound=Nc1ncnc2c1c(-c1ccc(Cl)cc1)nn2C1CCC1 system_name="ΔF508 CFTR (Homo sapiens, UniProt P13569, DEL508-508)" result="5 to 10 µM"
compound=Cc1ccc(F)c(Oc2nn(C(C)(C)C)c3ncnc(N)c23)c1 system_name="ΔF508 CFTR (Homo sapiens, UniProt P13569, DEL508-508)" result="> 15 µM"
compound=CC(=O)Nc1ncnc2c1c(-c1ccc(Cl)cc1)nn2C(C)(C)C system_name="ΔF508 CFTR (Homo sapiens, UniProt P13569, DEL508-508)" result="5 to 10 µM"
compound=CC(=O)N(C(C)=O)c1ncnc2c1c(-c1ccc(Cl)cc1)nn2C(C)(C)C system_name="ΔF508 CFTR (Homo sapiens, UniProt P13569, DEL508-508)" result="2 to 5 µM"
compound=CCn1cc(-c2ccc(Cl)cc2)c2c(NC(=O)c3ccccc3)ncnc21 system_name="ΔF508 CFTR (Homo sapiens, UniProt P13569, DEL508-508)" result="< 2 µM"
compound=CC(C)(C)n1nc(Oc2cccc(Cl)c2)c2c(NC(=O)N3CCCC3)ncnc21 system_name="ΔF508 CFTR (Homo sapiens, UniProt P13569, DEL508-508)" result="> 15 µM"
compound=CC(C)(C)n1nc(Oc2cccc(F)c2F)c2c(N)ncnc21 system_name="ΔF508 CFTR (Homo sapiens, UniProt P13569, DEL508-508)" result="> 15 µM"
compound="CCn1nc([S+]([O-])c2cccc(C)c2)c2c(N)ncnc21 (stereo not shown)" system_name="ΔF508 CFTR (Homo sapiens, UniProt P13569, DEL508-508)" result="> 15 µM"
compound=CC(C)(C)n1nc(-c2ccc(Cl)cc2)c2c(Nc3ncccn3)ncnc21 system_name="ΔF508 CFTR (Homo sapiens, UniProt P13569, DEL508-508)" result="> 15 µM"
compound=Cc1cc(-c2nn(C(C)(C)C)c3ncnc(N)c23)ccc1F system_name="ΔF508 CFTR (Homo sapiens, UniProt P13569, DEL508-508)" result="> 15 µM"
compound="CCn1nc(-c2ccc(Cl)cc2)c2c(N)ncnc21 [compound 31]" system_name="ΔF508 CFTR (Homo sapiens, UniProt P13569, DEL508-508)" result="5 to 10 µM"
compound=CCn1cc(-c2ccc(Cl)cc2)c2c(N(C)C(C)=O)ncnc21 system_name="ΔF508 CFTR (Homo sapiens, UniProt P13569, DEL508-508)" result="> 15 µM"
compound=CCOC(=O)N1CC(n2nc(Sc3cccc(Cl)c3)c3c(N)ncnc32)C1 system_name="ΔF508 CFTR (Homo sapiens, UniProt P13569, DEL508-508)" result="> 15 µM"
compound=COC(=O)Nc1ncnc2c1c(-c1ccc(Cl)cc1)nn2C(C)(C)C system_name="ΔF508 CFTR (Homo sapiens, UniProt P13569, DEL508-508)" result="> 15 µM"
compound=CC(=O)Nc1ncnc2c1c(-c1ccc(Cl)cc1)cn2C(C)(C)C system_name="ΔF508 CFTR (Homo sapiens, UniProt P13569, DEL508-508)" result="2 to 5 µM"
compound=CC(C)N1CC(n2nc(Oc3cccc(Cl)c3)c3c(N)ncnc32)C1 system_name="ΔF508 CFTR (Homo sapiens, UniProt P13569, DEL508-508)" result="> 15 µM"

Cited source: patent US20100331297A1
